OD450 at 10 nM values for the binders below.
Molecular target: T1, human MSLN-R1-his protein (human, UniProt Q13421 296-390)
T1 construct: Region 1 of human MSLN, His-tagged; also called human MSLN-R1 protein; hMSLN-R1-his; not shown: His tag
T1 chain: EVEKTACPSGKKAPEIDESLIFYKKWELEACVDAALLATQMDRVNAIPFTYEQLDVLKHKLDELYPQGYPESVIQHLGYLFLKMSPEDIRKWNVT
Assay: ELISA, coated MSLN-R1;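 note: serially diluted chimeric antibodies bound to the coated, BSA-blocked plate for 2 h at 37 °C, with TMB colour read after acid stop and a negative control antibody alongside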
The reply must contain the numeric value and, after it, the unit.

{"binder": "S009-F2.16.10 (antibody, human IgG1, kappa, V domains shown, Human-murine chimeric antibody, human IgG1/kappa constant regions) VH: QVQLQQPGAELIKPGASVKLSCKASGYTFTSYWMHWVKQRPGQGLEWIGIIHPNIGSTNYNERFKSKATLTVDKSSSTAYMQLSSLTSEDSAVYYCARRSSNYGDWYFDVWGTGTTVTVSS VL: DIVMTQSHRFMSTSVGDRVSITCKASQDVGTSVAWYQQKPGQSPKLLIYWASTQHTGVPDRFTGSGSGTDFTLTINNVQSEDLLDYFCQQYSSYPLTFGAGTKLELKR", "result": "1.62 OD450"}

// OD450 at 10 nM lookup, key: S009-F2.13.3 (antibody, human IgG1, kappa, V domains shown, Human-murine chimeric antibody, human IgG1/kappa constant regions) VH: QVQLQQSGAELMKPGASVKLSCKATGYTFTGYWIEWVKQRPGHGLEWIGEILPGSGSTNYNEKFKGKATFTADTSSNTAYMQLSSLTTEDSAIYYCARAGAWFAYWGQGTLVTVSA VL: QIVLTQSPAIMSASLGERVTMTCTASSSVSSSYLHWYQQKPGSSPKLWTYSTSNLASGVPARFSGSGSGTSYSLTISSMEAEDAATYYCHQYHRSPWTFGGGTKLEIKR
0.05 OD450

Measured values drawn from patent US20250250357A1 for this set.
